Origin of measurements: paper PMC6155852

test_method_notes: Plasma pharmacokinetics of KBGY constituents in rats after single oral administration of KBGY
Type: in vivo, rat
assay_context: rat, in vivo, po, 2 g/kg
Each entry below carries its reported AUC(0-t).
Report as a plain number; the unit ng·h/mL is understood.

Before answering, review these 7 worked examples.
Data request, read-out AUC(0-t), for C=C(CC[C@@H](C(=O)O)[C@H]1[C@H](O)C[C@@]2(C)C3=C(CC[C@]12C)[C@@]1(C)CC[C@H](O)C(C)(C)[C@@H]1CC3)C(C)C [Tumulosic acid]
700

Item O=C1OC[C@H](Cc2cccc(O)c2)[C@H]1Cc1cccc(O)c1 [Enterolactone] has what recorded AUC(0-t)?
1.33

For C=C(CC[C@@H](C(=O)O)[C@H]1[C@H](O)C[C@@]2(C)C3=C(CC[C@]12C)[C@@]1(C)CC[C@H](OC(C)=O)C(C)(C)[C@@H]1CC3)C(C)C [Pachymic acid] , what is its reported AUC(0-t)?
5.29

Look up AUC(0-t) for this compound: OC[C@H](Cc1cccc(O)c1)[C@H](CO)Cc1cccc(O)c1 [Enterodiol]
2.91

Given the compound O=C(O)CCCCC(=O)O [Adipic acid] , what is its reported AUC(0-t)?
17.1

What AUC(0-t) value was documented for this compound, O=C(O)c1cc(O)c(O)c(O)c1 [Gallic acid] ?
172

AUC(0-t) for COc1c(O)cc(C(=O)O)cc1O [4-O-Methylgallic acid] ?
479

Moving on to another compound below.
Please give the measured AUC(0-t) for this compound: O=C(O)CCCCCCCC(=O)O [Azelaic acid]
39.9

----------
test_method_notes: Plasma pharmacokinetics of KBGY constituents in rats after single oral administration of KBGY
Format: in vivo, rat
assay_context: in vivo; rat plasma, single oral KBGY 2 g/kg; read-out: AUC0–last
measurement_type: AUC(0-t)
Please make sure the unit comes right after the number.

Before answering, review these 2 worked examples.
# AUC(0-t) lookup, item N#C[C@H](O[C@@H]1O[C@H](CO[C@@H]2O[C@H](CO)[C@@H](O)[C@H](O)[C@H]2O)[C@@H](O)[C@H](O)[C@H]1O)c1ccccc1
79.9 ng·h/mL

Item N#C[C@H](O[C@@H]1O[C@H](CO)[C@@H](O)[C@H](O)[C@H]1O)c1ccccc1 has what recorded AUC(0-t)?
3700 ng·h/mL

Moving on to another molecule below.
# lookup: AUC(0-t) of N#CC(O)c1ccccc1 (stereo not drawn)
251 ng·h/mL

----------
test_method_notes: Plasma pharmacokinetics of KBGY constituents in rats after single oral administration of KBGY
Format: in vivo, rat
assay_context: rat plasma, single oral KBGY 2 g/kg; read-out: tmax
measurement_type: Tmax (min)
Please respond with the number in min and leave the unit unwritten.

Sample C=C(CC[C@@H](C(=O)O)[C@H]1[C@H](O)C[C@@]2(C)C3=CC[C@H]4C(C)(C)[C@@H](O)CC[C@]4(C)C3=CC[C@]12C)C(C)C [Dehydrotumulosic acid] — what was its Tmax?
30

----------
Listed here: items and their measured Tmax.
test_method_notes: Plasma pharmacokinetics of KBGY constituents in rats after single oral administration of KBGY
Assay type: in vivo, rat
assay_context: rat, in vivo, po, 2 g/kg
Record the value in h, omitting the unit from your answer.

Examples with their reported Tmax follow.
Recorded Tmax for O=C1OC[C@H](Cc2cccc(O)c2)[C@H]1Cc1cccc(O)c1 [Enterolactone] , please?
4

Name the recorded Tmax for O=C(O)CCCCC(=O)O [Adipic acid] .
6

Tmax lookup needed for O=C(O)CCCCCCCC(=O)O [Azelaic acid] , thanks.
0.25

Return reported Tmax; argument: OC[C@H](Cc1cccc(O)c1)[C@H](CO)Cc1cccc(O)c1 [Enterodiol]
0.5

***
Looking for the measured Tmax of Oc1cc(O)c2c(c1)O[C@H](c1ccc(O)c(O)c1)[C@@H](O)C2 [(+)-Catechin] , can you help?
2

----------
test_method_notes: Plasma pharmacokinetics of KBGY constituents in rats after single oral administration of KBGY
Format: in vivo, rat
assay_context: rat plasma, single oral KBGY 2 g/kg; read-out: AUC0–last
measurement_type: AUC(0-t) (ng·h/mL)
The reply should be a number in ng·h/mL, with the unit left off.

Requested read-out: AUC(0-t). Entry: C=C(CC[C@@H](C(=O)O)[C@H]1[C@H](O)C[C@@]2(C)C3=CC[C@H]4C(C)(C)[C@@H](O)CC[C@]4(C)C3=CC[C@]12C)C(C)C [Dehydrotumulosic acid]
39.5
